Experiment: Inhibition of CGRP (unknown origin)
Set-up: species or system Homo sapiens
ATTRIBUTE_MEASURED: IC50 (nM)
Kindly answer with a numeric value in nM, unit omitted.

[in] Can you look up the measured IC50 of "CN1CCN2c3c(cccc31)[C@@H]1CN(CCCC(=O)c3ccc(F)cc3)CC[C@@H]12" for me?
[out] 0.14

----------
Biological target: Dual specificity mitogen-activated protein kinase kinase; MEK1/2 (Homo sapiens, UniProt P36507+Q02750)
Assay: Inhibition of MEK1/2 (unknown origin)
ATTRIBUTE_MEASURED: pIC50
Please report pIC50 as the negative decimal logarithm of the molar concentration, giving only the number.

[in] Can you look up the measured pIC50 of "Cn1cnc2c(F)c(Nc3ccc(Br)cc3F)c(C(=O)NOCCO)cc21" for me?
[out] 7.92

----------
Experiment: Half life in dog
Assay type: ADME, Canis lupus familiaris
Conditions: in vivo
ATTRIBUTE_MEASURED: half-life

[in] Can you look up the measured half-life of "CN1CCN2c3c(cccc31)[C@@H]1CN(CCCC(=O)c3ccc(F)cc3)CC[C@@H]12" for me?
[out] ≤ 30 h
